Taken from PubChem BioAssay.

Assay: JHH-DIPG-1 glioma cell viability, MIPE5.0 library, CellTiter-Glo luminescence, qHTS (AID 1347067);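 note: cells exposed to compound for 48 hours before readout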
Details: JHH-DIPG-1 glioma viability, CellTiter-Glo ATP luminescence
Records with an inconclusive call do not appear. The source made the active and inactive calls. No cut-off is given here; in the data, nearly all actives have AC50 up to about 26 µM.
Return exactly one item of 1.0 = active, 0.0 = inactive

Examples with answers:
| compound | assignedClass |
| --- | --- |
| CC(C)(Oc1ccc(C2CC2(Cl)Cl)cc1)C(=O)O (stereo not given) | 0.0 |
| CN(C)C(=O)C(CCN1CCC(O)(c2ccc(Cl)cc2)CC1)(c1ccccc1)c1ccccc1 | 0.0 |
| O=c1cc(-c2ccccc2)oc2cc(O)cc(O)c12 | 0.0 |

Assay outcome for C[C@@H](NCCCc1cccc(C(F)(F)F)c1)c1cccc2ccccc12 : what was it?
1.0

Assay outcome for CCN[C@H]1C[C@H](C)S(=O)(=O)c2sc(S(N)(=O)=O)cc21 : what was it?
0.0

Assay outcome for COc1cc2ncnc(Nc3ccc(F)c(Cl)c3)c2cc1OCCCN1CCOCC1 : what was it?
0.0

Assay outcome for Clc1ccccc1CN1CCc2sccc2C1 : what was it?
0.0

###

Assay: inhibition of endothelial tube formation, primary screen, imaging, VEGF stimulated, CD31 staining, tube area, NPC library (AID 1117340)
Settings: VEGF-stimulated ADSC/ECFC co-culture, at 10 µM, stronger effect = higher value
metric: tube area decrease (%)
Report the value in % with no unit label.

Some solved entries appear below for comparison.
| molecule | unitInfo | tube area decrease |
| --- | --- | --- |
| NS(=O)(=O)c1cc(C(=O)O)cc(N2CCCC2)c1Oc1ccccc1 | % | -7 |
| C=CCN1C[C@H](C(=O)N(CCCN(C)C)C(=O)NCC)C[C@@H]2c3cccc4[nH]cc(c34)C[C@H]21 | % | -11.9 |
| O=C(NCC(O)CO)c1c(I)c(C(=O)NCC(O)CO)c(I)c(N(CCO)C(=O)CO)c1I (configuration not stated) | % | -24.3 |
| Cc1c(-c2ccccc2)oc2c(C(=O)OCCN3CCCCC3)cccc2c1=O | % | 19.4 |

Consider the molecule shown here: CCOC(=O)[C@@](C)(N)Cc1ccc(O)c(O)c1 What is its recorded tube area decrease?
-1.8

Consider the molecule shown here: C[C@]12CC[C@@H]3c4ccc(O)cc4CC[C@H]3[C@@H]1CC[C@@H]2OC(=O)CCC1CCCC1 What is its recorded tube area decrease?
110

###

Assay: MDA-MB-436 breast carcinoma cell growth inhibition, synergistic combos for chromothripsis tumors, BGB or cisplatin combos (AID 1671458);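 note: cells exposed for 96 hours; 0% = vehicle DMSO and 100% = killing by high DMSO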
Conditions: MDA-MB-436 breast carcinoma growth inhibition, drug combinations; measured here: cisplatin combination; at 5 µM; stronger effect = higher value
metric: inhibition (%)
Report the value in % with no unit label.

| molecule | inhibition / % |
| --- | --- |
| CCn1nc(C(=O)O)c(=O)c2cc3c(cc21)OCO3 | -13.2 |
| CN(N=O)C(=O)NC1C(O)OC(CO)C(O)C1O (centres undefined) | 0.976 |
| Nc1ccc2cc3ccc(N)cc3nc2c1 | 97.5 |

Consider now this further molecule.
Consider the molecule shown here: CNC1CCCN(c2c(F)cc3c(=O)c(C(=O)O)cn(C4CC4)c3c2OC)C1 (centres undefined) What is its recorded inhibition?
-11.6
